Molecular target: FLT3 (Homo sapiens, UniProt P36888)
Sequence (P36888 27-993): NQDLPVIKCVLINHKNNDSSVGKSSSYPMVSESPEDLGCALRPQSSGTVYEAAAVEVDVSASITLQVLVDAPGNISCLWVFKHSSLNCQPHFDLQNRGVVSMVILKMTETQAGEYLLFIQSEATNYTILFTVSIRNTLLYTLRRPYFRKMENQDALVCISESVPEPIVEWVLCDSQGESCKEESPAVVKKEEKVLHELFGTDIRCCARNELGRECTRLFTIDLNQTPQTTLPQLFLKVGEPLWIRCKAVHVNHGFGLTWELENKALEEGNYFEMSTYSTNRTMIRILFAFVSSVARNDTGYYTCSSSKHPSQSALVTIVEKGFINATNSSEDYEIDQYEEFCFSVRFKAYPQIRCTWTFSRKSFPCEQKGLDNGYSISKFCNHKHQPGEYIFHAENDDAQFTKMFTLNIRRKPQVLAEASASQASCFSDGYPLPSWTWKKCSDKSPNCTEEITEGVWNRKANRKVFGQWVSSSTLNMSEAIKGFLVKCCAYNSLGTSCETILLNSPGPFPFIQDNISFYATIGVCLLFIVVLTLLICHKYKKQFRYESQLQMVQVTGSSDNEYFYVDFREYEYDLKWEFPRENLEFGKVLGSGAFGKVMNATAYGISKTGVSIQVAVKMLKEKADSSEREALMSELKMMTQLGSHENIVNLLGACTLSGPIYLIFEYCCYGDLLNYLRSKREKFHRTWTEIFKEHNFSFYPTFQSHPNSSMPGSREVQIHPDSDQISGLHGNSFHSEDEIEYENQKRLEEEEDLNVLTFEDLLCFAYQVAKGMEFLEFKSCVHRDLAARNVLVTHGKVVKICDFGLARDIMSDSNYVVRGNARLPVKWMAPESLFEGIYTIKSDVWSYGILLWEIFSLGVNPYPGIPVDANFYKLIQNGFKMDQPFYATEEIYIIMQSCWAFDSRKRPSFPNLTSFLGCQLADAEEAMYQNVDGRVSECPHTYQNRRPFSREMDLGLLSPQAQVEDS
Test: in vitro FLT3 kinase activity test, Mobility Shift Assay
Assay type: biochemical
Settings: compound concentration 0.1 μM; read-out: Percentage of inhibition against FLT3 at 0.1 μM
Binary classification by inhibition at 0.1 µM, with 80% as an inclusive lower bound for t; all other cases are f.

compound="COC(=O)c1ccc(NC(=O)N2CCN(c3ccnc(Nc4ccc(N5CCOCC5)cc4)n3)CC2)cc1 [Example 5]" system_under_test="FLT3 (Homo sapiens, UniProt P36888)" class_name=f
compound="CC(=O)Nc1ccc(NC(=O)N2CCN(c3ccnc(Nc4ccc(N5CCOCC5)cc4)n3)CC2)cc1 [Example 13]" system_under_test="FLT3 (Homo sapiens, UniProt P36888)" class_name=f
compound="NS(=O)(=O)c1ccc(NC(=O)N2CCN(c3ccnc(Nc4ccc(N5CCOCC5)cc4)n3)CC2)cc1 [Example 12]" system_under_test="FLT3 (Homo sapiens, UniProt P36888)" class_name=f
compound="Cc1cnc(Nc2ccc(N3CCOCC3)cc2)nc1N1CCN(C(=O)Nc2ccc(C#N)cc2)CC1 [Example 20]" system_under_test="FLT3 (Homo sapiens, UniProt P36888)" class_name=t
compound="CC(=O)c1ccc(NC(=O)N2CCN(c3ccnc(Nc4ccc(OCCCN5CCOCC5)cc4)n3)CC2)cc1 [Example 19]" system_under_test="FLT3 (Homo sapiens, UniProt P36888)" class_name=f
compound="CC(=O)c1ccc(NC(=O)C2CCN(c3nc(Nc4ccc(N5CCOCC5)cc4)ncc3C)CC2)cc1 [Example 33]" system_under_test="FLT3 (Homo sapiens, UniProt P36888)" class_name=t
compound="CC(=O)c1ccc(NC(=O)NC2CCN(c3nc(Nc4ccc(N5CCOCC5)cc4)ncc3C)C2)cc1 (stereo not shown) [Example 29]" system_under_test="FLT3 (Homo sapiens, UniProt P36888)" class_name=f
compound="N#Cc1ccc(NC(=O)N2CCN(c3ccnc(Nc4ccc(N5CCOCC5)cc4)n3)CC2)cc1F [Example 8]" system_under_test="FLT3 (Homo sapiens, UniProt P36888)" class_name=f
compound="COc1ccc(NC(=O)N2CCN(c3ccnc(Nc4ccc(N5CCOCC5)cc4)n3)CC2)cc1 [Example 1]" system_under_test="FLT3 (Homo sapiens, UniProt P36888)" class_name=f
compound="CN1CCN(c2ccc(Nc3nccc(N4CCN(C(=O)Nc5ccc(C(N)=O)cc5)CC4)n3)cc2)CC1 [Example 15]" system_under_test="FLT3 (Homo sapiens, UniProt P36888)" class_name=t
compound="CC(=O)c1ccc(NC(=O)N2CCN(c3nc(Nc4ccc(N5CCOCC5)cc4)ncc3N)CC2)cc1 [Example 27]" system_under_test="FLT3 (Homo sapiens, UniProt P36888)" class_name=f
compound="CC(=O)c1ccc(NC(=O)N2CCN(c3nc(Nc4ccc(N5CCOCC5)cc4)ncc3C)CC2)cc1 [Example 22]" system_under_test="FLT3 (Homo sapiens, UniProt P36888)" class_name=t
